- System: 317291-083-R-J1-PDC complex spheroids, viability
- Assay overview: Anticancer human tumor 317291-083-R-J1-PDC patient-derived soft tissue sarcoma cell line growth inhibition [GQUAD]
- Measurement conditions: second compound 0.0316 µM; first compound 3.16 µM; stronger effect = lower value
Kindly state viability, T/C for each of the entries shown.
Return type: number; implicit unit %.

Look at this compound and give its reported viability, T/C. C#Cc1c(F)ccc2cc(O)cc(-c3ncc4c(N5CC6CCC(C5)N6)nc(OCC56CCCN5CC(F)C6)nc4c3F)c12 (stereo not given) + Cc1cnc(CNC(=O)c2c(=O)c3ccc(N4CCCN(C)CC4)nc3n3c2sc2ccccc23)cn1 90.6

Look at this compound and give its reported viability, T/C. CC1COCCN1c1cc(-c2ccnn2C)c2ccnc(-c3ccn[nH]3)c2n1 (stereo not given) + Cc1[nH]c2ccc(F)cc2c1-c1nc2c3cccnc3c3ncccc3c2[nH]1 13

Look at this compound and give its reported viability, T/C. CC(C)(O)C1CCC(Nc2ccc3ncc(-c4cccc(C(F)(F)F)c4)n3n2)CC1 (stereo not given) + Cc1cnc(CNC(=O)c2c(=O)c3ccc(N4CCCN(C)CC4)nc3n3c2sc2ccccc23)cn1 0.22

Look at this compound and give its reported viability, T/C. CC(C)(O)C1CCC(Nc2ccc3ncc(-c4cccc(C(F)(F)F)c4)n3n2)CC1 (stereo not given) + CN(C)c1ccc(Nc2c3ccc(NC(=O)CCN4CCCC4)cc3nc3cc(NC(=O)CCN4CCCC4)ccc23)cc1 0.9

Look at this compound and give its reported viability, T/C. CC(C)n1c(=O)n(C)c2cnc3cc(F)c(-c4ccc(OCCCN5CCCCC5)nc4)cc3c21 + Cc1cnc(CNC(=O)c2c(=O)c3ccc(N4CCCN(C)CC4)nc3n3c2sc2ccccc23)cn1 73.3

Look at this compound and give its reported viability, T/C. COc1cccc2c1C(=O)c1c(O)c3c(c(O)c1C2=O)CC(O)(C(=O)CO)CC3OC1CC(N)C(O)C(C)O1 (stereo not given) + Cc1cnc(CNC(=O)c2c(=O)c3ccc(N4CCCN(C)CC4)nc3n3c2sc2ccccc23)cn1 1.84

Look at this compound and give its reported viability, T/C. CCCS(=O)(=O)Nc1ccc(F)c(C(=O)c2c[nH]c3ncc(-c4ccc(Cl)cc4)cc23)c1F + Cc1cnc(CNC(=O)c2c(=O)c3ccc(N4CCCN(C)CC4)nc3n3c2sc2ccccc23)cn1 60.6

Look at this compound and give its reported viability, T/C. COc1cccc2c1C(=O)c1c(O)c3c(c(O)c1C2=O)CC(O)(C(=O)CO)CC3OC1CC(N)C(O)C(C)O1 (stereo not given) + CN(C)c1ccc(Nc2c3ccc(NC(=O)CCN4CCCC4)cc3nc3cc(NC(=O)CCN4CCCC4)ccc23)cc1 0.97

Look at this compound and give its reported viability, T/C. C=CCn1c(=O)c2cnc(Nc3ccc(N4CCN(C)CC4)cc3)nc2n1-c1cccc(C(C)(C)O)n1 + Cc1[nH]c2ccc(F)cc2c1-c1nc2c3cccnc3c3ncccc3c2[nH]1 8.57

Look at this compound and give its reported viability, T/C. O=C(NO)c1cnc(N2CCN(S(=O)(=O)c3ccc4ccccc4c3)CC2)nc1 + CN(C)c1ccc(Nc2c3ccc(NC(=O)CCN4CCCC4)cc3nc3cc(NC(=O)CCN4CCCC4)ccc23)cc1 0.02

Look at this compound and give its reported viability, T/C. CC1COCCN1c1cc(C2(O)CC3CCC(C2)O3)c2cnn(-c3ccn[nH]3)c2n1 (stereo not given) + CN(C)c1ccc(Nc2c3ccc(NC(=O)CCN4CCCC4)cc3nc3cc(NC(=O)CCN4CCCC4)ccc23)cc1 12.9

Look at this compound and give its reported viability, T/C. C=CCn1c(=O)c2cnc(Nc3ccc(N4CCN(C)CC4)cc3)nc2n1-c1cccc(C(C)(C)O)n1 + Cc1cnc(CNC(=O)c2c(=O)c3ccc(N4CCCN(C)CC4)nc3n3c2sc2ccccc23)cn1 17.8

Look at this compound and give its reported viability, T/C. C#Cc1c(F)ccc2cc(O)cc(-c3ncc4c(N5CC6CCC(C5)N6)nc(OCC56CCCN5CC(F)C6)nc4c3F)c12 (stereo not given) + CN(C)c1ccc(Nc2c3ccc(NC(=O)CCN4CCCC4)cc3nc3cc(NC(=O)CCN4CCCC4)ccc23)cc1 68

Look at this compound and give its reported viability, T/C. O=c1[nH]cc(F)c(=O)[nH]1 + Cc1[nH]c2ccc(F)cc2c1-c1nc2c3cccnc3c3ncccc3c2[nH]1 73.3

Look at this compound and give its reported viability, T/C. O=C(NO)c1cnc(N2CCN(S(=O)(=O)c3ccc4ccccc4c3)CC2)nc1 + Cc1[nH]c2ccc(F)cc2c1-c1nc2c3cccnc3c3ncccc3c2[nH]1 0.07

Look at this compound and give its reported viability, T/C. CC1COCCN1c1cc(C2(O)CC3CCC(C2)O3)c2cnn(-c3ccn[nH]3)c2n1 (stereo not given) + Cc1cnc(CNC(=O)c2c(=O)c3ccc(N4CCCN(C)CC4)nc3n3c2sc2ccccc23)cn1 13

Look at this compound and give its reported viability, T/C. CC1COCCN1c1cc(C2(S(C)(=N)=O)CC2)nc(-c2ccnc3[nH]ccc23)n1 (stereo not given) + Cc1cnc(CNC(=O)c2c(=O)c3ccc(N4CCCN(C)CC4)nc3n3c2sc2ccccc23)cn1 19

Look at this compound and give its reported viability, T/C. CC(=O)O[C@H]1C(=O)[C@@]2(C)[C@H]([C@H](OC(=O)c3ccccc3)[C@]3(O)C[C@H](OC(=O)[C@H](O)[C@@H](NC(=O)c4ccccc4)c4ccccc4)C(C)=C1C3(C)C)[C@]1(OC(C)=O)CO[C@@H]1C[C@@H]2O + Cc1[nH]c2ccc(F)cc2c1-c1nc2c3cccnc3c3ncccc3c2[nH]1 13.9

Look at this compound and give its reported viability, T/C. CC(=O)O[C@H]1C(=O)[C@@]2(C)[C@H]([C@H](OC(=O)c3ccccc3)[C@]3(O)C[C@H](OC(=O)[C@H](O)[C@@H](NC(=O)c4ccccc4)c4ccccc4)C(C)=C1C3(C)C)[C@]1(OC(C)=O)CO[C@@H]1C[C@@H]2O + Cc1cnc(CNC(=O)c2c(=O)c3ccc(N4CCCN(C)CC4)nc3n3c2sc2ccccc23)cn1 11.3

Look at this compound and give its reported viability, T/C. COc1cc(C2c3cc4c(cc3C(OC3OC5COC(C)OC5C(O)C3O)C3COC(=O)C23)OCO4)cc(OC)c1O (stereo not given) + Cc1cnc(CNC(=O)c2c(=O)c3ccc(N4CCCN(C)CC4)nc3n3c2sc2ccccc23)cn1 15.4

###

- Tested on: 317291-083-R-J1-PDC complex spheroids, viability
- Assay overview: Anticancer human tumor 317291-083-R-J1-PDC cell line growth inhibition [GQUAD]; active = viability on the fitted dose curve at most 10% of control; inactive = the rest;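 further: spheroids exposed to compounds for one week before readout; percent viability relative to DMSO vehicle wells taken as 100%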
- Measurement conditions: second compound 0.0316 µM; first compound 10 µM
Answer with one of the outcomes given here: active, inactive

Kindly provide the recorded test outcome for the following molecule: COc1ncnc(C2CC2)c1-c1ncc2cnn(Cc3ccc(-c4nc(C(F)(F)F)cn4C(C)C)cc3)c2n1 + CN(C)c1ccc(Nc2c3ccc(NC(=O)CCN4CCCC4)cc3nc3cc(NC(=O)CCN4CCCC4)ccc23)cc1 inactive

Kindly provide the recorded test outcome for the following molecule: O=C(NO)c1cnc(N2CCN(S(=O)(=O)c3ccc4ccccc4c3)CC2)nc1 + CN(C)c1ccc(Nc2c3ccc(NC(=O)CCN4CCCC4)cc3nc3cc(NC(=O)CCN4CCCC4)ccc23)cc1 active

Kindly provide the recorded test outcome for the following molecule: Cc1cccc(N(C)C(=O)C2C(O)CCN2c2nc(C)cc(C(F)(F)F)c2C#N)c1 (stereo not given) + CN(C)c1ccc(Nc2c3ccc(NC(=O)CCN4CCCC4)cc3nc3cc(NC(=O)CCN4CCCC4)ccc23)cc1 inactive

Kindly provide the recorded test outcome for the following molecule: CC1COCCN1c1cc(C2(O)CC3CCC(C2)O3)c2cnn(-c3ccn[nH]3)c2n1 (stereo not given) + Cc1cnc(CNC(=O)c2c(=O)c3ccc(N4CCCN(C)CC4)nc3n3c2sc2ccccc23)cn1 active

Kindly provide the recorded test outcome for the following molecule: CC1COCCN1c1cc(C2(S(C)(=N)=O)CC2)nc(-c2ccnc3[nH]ccc23)n1 (stereo not given) + Cc1[nH]c2ccc(F)cc2c1-c1nc2c3cccnc3c3ncccc3c2[nH]1 inactive

Kindly provide the recorded test outcome for the following molecule: C#Cc1c(F)ccc2cc(O)cc(-c3ncc4c(N5CC6CCC(C5)N6)nc(OCC56CCCN5CC(F)C6)nc4c3F)c12 (stereo not given) + CN(C)c1ccc(Nc2c3ccc(NC(=O)CCN4CCCC4)cc3nc3cc(NC(=O)CCN4CCCC4)ccc23)cc1 inactive

Kindly provide the recorded test outcome for the following molecule: C#Cc1c(F)ccc2cc(O)cc(-c3ncc4c(N5CC6CCC(C5)N6)nc(OCC56CCCN5CC(F)C6)nc4c3F)c12 (stereo not given) + Cc1[nH]c2ccc(F)cc2c1-c1nc2c3cccnc3c3ncccc3c2[nH]1 inactive

Kindly provide the recorded test outcome for the following molecule: C#Cc1c(F)ccc2cc(O)cc(-c3ncc4c(N5CC6CCC(C5)N6)nc(OCC56CCCN5CC(F)C6)nc4c3F)c12 (stereo not given) + Cc1cnc(CNC(=O)c2c(=O)c3ccc(N4CCCN(C)CC4)nc3n3c2sc2ccccc23)cn1 inactive

Kindly provide the recorded test outcome for the following molecule: CC(=O)O[C@H]1C(=O)[C@@]2(C)[C@H]([C@H](OC(=O)c3ccccc3)[C@]3(O)C[C@H](OC(=O)[C@H](O)[C@@H](NC(=O)c4ccccc4)c4ccccc4)C(C)=C1C3(C)C)[C@]1(OC(C)=O)CO[C@@H]1C[C@@H]2O + Cc1[nH]c2ccc(F)cc2c1-c1nc2c3cccnc3c3ncccc3c2[nH]1 inactive

Kindly provide the recorded test outcome for the following molecule: C=CCn1c(=O)c2cnc(Nc3ccc(N4CCN(C)CC4)cc3)nc2n1-c1cccc(C(C)(C)O)n1 + CN(C)c1ccc(Nc2c3ccc(NC(=O)CCN4CCCC4)cc3nc3cc(NC(=O)CCN4CCCC4)ccc23)cc1 active
